Task for the reader: assign each of the following compounds its reported TGI.
- System: OVCAR-3 ovarian
- PROTOCOL NOTES: NCI tumour cell line growth inhibition, 48 h
*1 amine or outer side, *2 acyl side, *3 side chain or, on linkers, in order; H or OH if unused. Where a SMILES comes first, the peptide text is derived from it. [ ]: non-standard residue; d: D form. ξ: configuration not given here. X22 = O=C(C(CC(O)CO)O[*:1])[*:2]; Ile(3ξ) = CCC(C)[C@H](N)C(=O)O; NMeV = CN[C@H](C(=O)O)C(C)C; NMeA = CN[C@@H](C)C(=O)O; βAla = NCCC(=O)O

Field TGI (entry COc1ccc2c(c1)C(=O)c1c-2c(N2CCN(C(=O)CCNCCNCCO)CC2)nc2ccccc12 ) reads 43.2 µM

The compound listed as Cc1cccc(/C=N/NC(=S)N(C)CCc2ccccn2)n1 shows TGI equal to > 100 µM

TGI measured on CCSc1nnc(-c2ccccc2)nc1Cc1ccc(OC)cc1 = > 100 µM

The compound listed as CO/N=C(\C)c1cccc(Nc2nc3ccccc3c3occc23)c1 shows TGI equal to 33.1 µM

# TGI (compound: CNCCN(C)Cc1cn[nH]c1-c1ccc(OC2CC(OCCC3CCOCC3)C2)cc1 (stereo unspecified) ) is > 100 µM

Kindly note the recorded TGI for COc1cc(-c2nn(-c3cccc(NC(=O)CCN4CCN(C)CC4)c3)cc2-c2ccncc2)ccc1Cl , which is 1.75 µM

The reported value for CCO[C@]12CCC[C@H]1[C@@H]1C(=O)c3ccccc3C(=O)C1=C(C)O2 in terms of TGI is 50.3 µM

So, COC(=O)c1ccc(/C=C2\Oc3cc(O)ccc3C2=O)cc1 ? Its TGI was > 100 µM

So, CCOP(=O)(OCC)C(Nc1cccc(F)c1)c1ccc(N(C)C)cc1 (stereo unspecified) ? Its TGI was > 100 µM

compound Fc1ccc(-c2nn3c(COc4ccc(Cl)cc4Cl)nnc3s2)cc1Oc1ccccc1 , TGI observed: 13.3 µM

Value of TGI reported for the compound COc1ccc(C(=C2C(=O)N(c3ccccc3)C(=O)C2=C(C)C)c2ccc(OC)cc2)cc1 is > 100 µM

The compound listed as COc1ccc2c(c1)CCc1c-2n(CCN2CCOCC2)c2ccc(OC)cc12 has a reported TGI of > 100 µM

TGI reading for O=c1[nH]c(SCc2ccccc2[N+](=O)[O-])nc2nc[nH]c12 : > 100 µM

For reference, reported TGI for COC(=O)C(/C(=N/N)C(=O)Nc1cccc(O)c1)c1nc2ccccc2[nH]c1=O (stereo unspecified) stands at > 100 µM

Item: O=C1NC(=N[C@H](CO)c2ccccc2)S/C1=C\c1ccc2ncccc2c1 | TGI: 13.7 µM

Briefly, TGI measured for C[N+](C)(C)CCN[N+]1(C)CCCc2ccccc21 (stereo unspecified) : > 100 µM

TGI measured on COC(=O)N/N=C(\c1ccccc1)c1ccc(OC)cc1 = > 100 µM

The compound listed as CC(C)NC(=O)OCc1c(COC(=O)NC(C)C)c(-c2cc[n+](COC(=O)C(C)C)cc2)n2c1CCC2 shows TGI equal to > 100 µM

// sample CN1CCc2cc3c4cc2C1Cc1ccc(cc1)Oc1cc(ccc1O)CC1c2c(cc(O)c(c2O4)O3)CCN1C (stereo unspecified) , its TGI was 11.5 µM

Entry COC(=O)[C@]12CC[C@@H](C)[C@H](C)[C@@H]1C1=CC[C@@H]3[C@@]4(C)CC(=O)[C@H](O)[C@@](C)(CO)[C@@H]4C(=O)C[C@@]3(C)[C@]1(C)CC2 — recorded TGI = 24.8 µM

TGI reading for COc1ccc2nc3cc(Cl)ccc3c(Nc3cc(C(C)C)c(O)cc3C)c2c1 : 3.26 µM

response.value for Cc1cn2c(/C=C3/C(=O)Nc4ccc(Cl)cc43)c(C)nc2s1 (field: TGI) = 5.28 µM

The recorded TGI for entry NCC1(N2CCOCC2)C2CCCC21CNc1ccccc1 (stereo unspecified) equals > 100 µM

// TGI lookup, compound = O=C1C(Br)=CC2(C=C1Br)CCNc1c(O)c3c4c(c12)=NCCC=4C=N3 , result: 0.0835 µM

Lab note: CC1(O)COCCCCOc2c(CN)cccc2NC(=O)c2nc(cnc2N)-c2ccc(cc2)S(=O)(=O)C(C)(C)C1 (stereo unspecified) gave TGI of 2.56 µM

Data point: Cc1cc2c(cc1C)C(=O)/C(=C/c1ccccc1C(=O)O)C2 ; TGI = > 100 µM

Field TGI (entry Cc1ccc(NC(=O)C(=O)CC(=O)c2ccccc2)cc1C ) reads > 100 µM

TGI measured on Oc1ccc(-c2nc3cc(F)ccc3s2)cc1 = 41.5 µM

Input O=C1CC[C@@H](NC(=O)Cc2ccccc2)C(=O)N1 . Output TGI: > 100 µM

# TGI (compound: CNN1C(=O)c2c(C)c(C)c(C#N)c(N)c2C1=O ) is > 100 µM

# compound CC1CC(Br)C(=O)O1 (stereo unspecified) ; its TGI = > 100 µM

// TGI lookup, compound = CCc1ccc(/C=C/C(=O)C2CN(CC)CCC2(O)/C=C/c2ccc(CC)cc2)cc1 (stereo unspecified) , result: 3.3 µM

Record summary for CSc1nc2nc(C(O)C(O)C(O)CO)cnc2c(=O)[nH]1 (stereo unspecified) : reported TGI = > 100 µM

Record CCC(C)[C@@H]1NC(=O)[C@@H]2CCCN2C(=O)C(CC(O)CO)OC(=O)CCNC(=O)[C@H](C)N(C)C(=O)[C@H](C(C)C)N(C)C1=O (stereo partly specified) (cyclo([Ile(3ξ)][NMeV][NMeA][βAla][X22]P)) , field TGI: > 100 µM

Measured TGI of COC(=O)NC(=O)c1cn(C2CCCCC2)c(=O)[nH]c1=O : > 100 µM

Measured TGI of O=C1N=C(Nc2nc(-c3csc(NC4=NC(=O)/C(=C\c5ccc(Cl)cc5)S4)n3)cs2)S/C1=C/c1ccc(Cl)cc1 : 37.3 µM

Field TGI (entry c1ccc2c3nnc(c2c1)SCCCSc1nnc(c2ccccc12)SCCCS3 ) reads > 100 µM

// TGI value for O=C1OC2(OC2c2ccc(Cl)cc2)c2ccccc21 (stereo unspecified) : > 100 µM

Reported TGI for Nc1ccc(C(=O)Nc2ccccc2N)cc1 was > 100 µM

get_value(item= CCOC(=O)CC(=O)CSc1c(-c2ccccc2)c(=O)n(-c2ccccc2)c(=S)n1-c1ccccc1 , readout=TGI) returns > 100 µM

# TGI of NCCNCCNc1ccc(NCCNCCN)c2c1C(=O)c1c(O)ccc(O)c1C2=O = > 100 µM
